System: M14
Assay: NCI tumour cell line growth inhibition, 48 h
Activity calls are given as the source filed them. Cut-off read from the data, not from the text of the source: active = GI50 up to about 1.1 µM and inactive = higher.
Record form. Attribute: GI50. Fill in for each entry.

response.value for CC(C)C1=C(O)C(=O)C2=C(C1=O)C(OC=O)C(O)C1C(C)(C)CCCC21C (stereo unspecified) (field: GI50) = 11.9 µM (inactive)

response.value for COC(=O)N[C@H](C(=O)NC(OCc1ccccc1)C1COC(C)(C)O1)C(C)O[Si](C)(C)C(C)(C)C (stereo partly specified) (field: GI50) = > 100 µM (inactive)

response.value for O=C(CBr)NCCc1c[nH]c2ccccc12 (field: GI50) = 1.66 µM (inactive)

response.value for OC1(c2ccc(Cl)cc2)c2ccccc2-c2nc3ccccc3n21 (stereo unspecified) (field: GI50) = > 100 µM (inactive)

response.value for N=C(N)NS(=O)(=O)c1ccc(NNc2c3ccccc3nc3ccccc23)cc1 (field: GI50) = 12.8 µM (inactive)

response.value for COc1cc2c(cc1OC)C1(COc3cc(O)c(O)c(O)c3C1=O)C2 (stereo unspecified) (field: GI50) = > 50 µM (inactive)

response.value for Cc1cccc(Nc2cn(CCOc3ccccc3)c(=O)n(CCOc3ccccc3)c2=O)c1 (field: GI50) = > 100 µM (inactive)

response.value for Nc1nc(N)c(N=O)c(Nc2ccc(O)cc2)n1 (field: GI50) = 6.05 µM (inactive)

response.value for COc1cc(Nc2nc3ccccc3nc2C(=O)O)cc(OC)c1OC (field: GI50) = 73.6 µM (inactive)

response.value for CC1(c2cccc(N)c2)C2C(=O)NC(=O)C1C(=O)NC2=O (stereo unspecified) (field: GI50) = 36.7 µM (inactive)

response.value for O=[N+]([O-])c1cc(Cl)cc2cc(Br)cnc12 (field: GI50) = > 31.6 µM (inactive)

response.value for O=C(O)CSCCc1ccccc1 (field: GI50) = > 100 µM (inactive)

response.value for C=C(CCC/C(C)=C/C=C/[C@@H](C)CCCc1ccoc1)C[C@@H]1OC(=O)[C@H](C)[C@@H]1O (field: GI50) = 9.33 µM (inactive)

response.value for CCOC(=O)C1=C(C)N(c2ccc(C)cc2)C2=C(C(=O)N(c3ccccc3)C2c2ccccc2)C1c1ccccc1 (stereo unspecified) (field: GI50) = > 25 µM (inactive)

response.value for NS(=O)(=O)c1ccc(NC2=CC(=O)C(=O)c3ccccc32)cc1 (field: GI50) = > 100 µM (inactive)

response.value for COc1ccc(-c2cs/c(=N\c3ccccc3)n2CCCN(C)C)cc1 (field: GI50) = 10.7 µM (inactive)

response.value for O=C1/C(=C/C=C/c2ccccc2)CCC1CNc1ccccc1 (stereo unspecified) (field: GI50) = 30.2 µM (inactive)

response.value for COc1cc([C@@H]2c3cc4c(cc3[C@@H](NC(=O)c3ccc(OC(C)=O)cc3)C3COC(=O)[C@@H]32)OCO4)cc(OC)c1O (stereo partly specified) (field: GI50) = 2.56 µM (inactive)

response.value for COC(=O)c1cc(NC(=O)Cn2c3ccccc3c3ccccc32)cn1C (field: GI50) = > 100 µM (inactive)

response.value for Nc1ccc(SC23CC4CC(CC(C4)C2)C3)cc1 (field: GI50) = > 100 µM (inactive)

response.value for COC1(OC)CC2C(=O)N(Cc3ccccc3)C1C(S(=O)(=O)c1ccccc1)C2S(=O)(=O)c1ccccc1 (stereo unspecified) (field: GI50) = 14.8 µM (inactive)

====

Record form. Attribute: GI50. Fill in for each entry.
Tested on: NCI-H460
Assay: NCI tumour cell line growth inhibition, 48 h
Active and inactive are the calls of the source. Cut-off read from the data, not from the text of the source: active = GI50 up to about 1.1 µM and inactive = higher.

response.value for Sc1ncc(-c2cncc(-c3cnc(S)nc3)n2)cn1 (field: GI50) = > 100 µM (inactive)

response.value for O=[N+]([O-])c1ccc(/C=N/C23CC4CC(CC(C4)C2)C3)cc1 (field: GI50) = > 100 µM (inactive)

response.value for C=CC(=O)N1C/C(=C\c2ccc(OC)cc2)C(=O)/C(=C/c2ccc(OC)cc2)C1 (field: GI50) = 1.9 µM (inactive)

response.value for CC(=O)Oc1cc(C)c(OC(C)=O)c2c1[C@H]1CC[C@]3(C)[C@@H](OC(C)=O)CC[C@H]3[C@@H]1CC2 (field: GI50) = 17.7 µM (inactive)

response.value for Cc1ccc(O)c(C2=CC3=NNC(=O)C3C(c3cccc(Cl)c3)C2)c1 (stereo not drawn) (field: GI50) = 32.4 µM (inactive)

response.value for Cn1c(=O)c2nc(SCCN3CCOCC3)[nH]c2n(C)c1=S (field: GI50) = > 100 µM (inactive)

response.value for Cn1ncc2ccc3[nH]c4ccccc4c(=O)c3c21 (field: GI50) = 28.7 µM (inactive)

response.value for O=c1oc2ccccc2c(Nc2ccc3c(c2)Sc2ccccc2O3)c1[N+](=O)[O-] (field: GI50) = 17.3 µM (inactive)

response.value for Cn1c(=O)c(Cl)c(N=[N+]=[N-])c2ccccc21 (field: GI50) = > 100 µM (inactive)

response.value for O=C(O/N=c1/ccc(=O)/c(=N\OC(=O)c2ccccc2)c1=O)c1ccccc1 (field: GI50) = > 100 µM (inactive)

response.value for COc1ccc2c(c1)OC(c1ccccc1O)CC2=O (stereo not drawn) (field: GI50) = 50.1 µM (inactive)

response.value for OC1(c2ccc(Cl)cc2)c2ccc3ccccc3c2C2=N[C@H]3CCCC[C@@H]3N21 (stereo partly drawn) (field: GI50) = 13.3 µM (inactive)

response.value for COc1cc(Nc2nc3ccccc3nc2C(=O)O)cc(OC)c1OC (field: GI50) = 65.3 µM (inactive)

response.value for N=C1NC(=O)N2CC12 (stereo not drawn) [IMEXON] (field: GI50) = > 100 µM (inactive)

response.value for CCCCCCCc1cscc1-c1cscc1Br (field: GI50) = 39.4 µM (inactive)

response.value for C=CCCON(C(=O)OC(C)(C)C)c1ccccc1 (field: GI50) = > 100 µM (inactive)

response.value for Cc1c(Cl)cccc1N1C(=O)C(Cl)=C(Cl)C1=O (field: GI50) = > 100 µM (inactive)

response.value for Cc1nc2ccccc2nc1N1CCCC1 (field: GI50) = > 100 µM (inactive)

response.value for CS(=O)(=O)Nc1ccc2ccccc2c1 (field: GI50) = > 100 µM (inactive)

response.value for CC(C)CCNc1ncnc2[nH]ncc12 (field: GI50) = > 100 µM (inactive)

response.value for Nc1nc(-c2cc(-c3cccc4ccccc34)nc(N)n2)cc(-c2cccc3ccccc23)n1 (field: GI50) = > 100 µM (inactive)

response.value for CCOC(=O)N1CCNCCN(C(=O)OCC)CCNCC1 (field: GI50) = > 100 µM (inactive)

response.value for COC1(OC)CC2C(=O)N(Cc3ccccc3)C1C(S(=O)(=O)c1ccccc1)C2S(=O)(=O)c1ccccc1 (stereo not drawn) (field: GI50) = 27.7 µM (inactive)

====

Test system: U-251
Experiment: NCI tumour cell line growth inhibition, 48 h
Active and inactive are the calls of the source. Rule as the data show it: active = GI50 up to about 1.1 µM and inactive = higher. *1 amine or outer side, *2 acyl side, *3 side chain or, on linkers, in order; H or OH if unused. Where a SMILES comes first, the peptide text is derived from it. [ ]: non-standard residue; d: D form. The star is where a group is joined. X31 = CC(=O)N(C)SCC(N[*:1])C(=O)[*:2]; Fmoc = O=C(OCC1c2ccccc2-c2ccccc21)*; For = O=C*
One label from this list, please: active, inactive

Inquiry: Each molecule tested received a call. Report the one for O=C1NC(=O)C2C(=O)NC(=O)C1C2c1c(Cl)cccc1Cl (stereo not given) .
Reply text: inactive

Inquiry: Each molecule tested received a call. Report the one for O=C(NC(Cc1ccc(Cl)cc1)C(=O)O)c1ccc(I)cc1 (stereo not given) .
Reply text: inactive

Inquiry: Each molecule tested received a call. Report the one for CC[C@@]1(O)C(=O)OCc2c1cc1n(c2=O)Cc2c-1nc1ccccc1c2/C=N\NC(=O)C(C)N (stereo not given in full) .
Reply text: active

Inquiry: Each molecule tested received a call. Report the one for N=C(N)NS(=O)(=O)c1ccc(NNc2c3ccccc3nc3ccccc23)cc1 .
Reply text: inactive

Inquiry: Each molecule tested received a call. Report the one for O=C(SCc1cccc2ccccc12)c1ccc(Cl)cc1 .
Reply text: inactive

Inquiry: Each molecule tested received a call. Report the one for C=CCOC(=O)[C@@H]1C[C@@H](OC(C)(C)C)CN1C(=O)[C@@H]1[C@H]2OC(C)(C)O[C@H]2CN1C(=O)OCC1c2ccccc2-c2ccccc21 .
Reply text: inactive

Inquiry: Each molecule tested received a call. Report the one for CCNC(=O)COc1ccc(Cl)c(C)c1 .
Reply text: inactive

Inquiry: Each molecule tested received a call. Report the one for O=C(O)C(C1NCCS1)N1Cc2ccccc2C1 (stereo not given) .
Reply text: inactive

Inquiry: Each molecule tested received a call. Report the one for O=C(O)CNC(=O)C1NC(C(F)(F)F)(C(F)(F)F)OC1(C(F)(F)F)C(F)(F)F (stereo not given) .
Reply text: inactive

Inquiry: Each molecule tested received a call. Report the one for COc1cc(CO)cc2c1[nH]c1ccccc12 .
Reply text: inactive

Inquiry: Each molecule tested received a call. Report the one for COc1cc(C(C)c2cc3c(cc2OCCOCCOc2cc4c(cc2C(C)c2cc(OC)c(OC)c(OC)c2)OCO4)OCO3)cc(OC)c1OC (stereo not given) .
Reply text: inactive

Inquiry: Each molecule tested received a call. Report the one for COc1cc(C2C3=C(COC3=O)Oc3cc4c(cc32)OCO4)cc(OC)c1OC(C)=O (stereo not given) .
Reply text: active

Inquiry: Each molecule tested received a call. Report the one for CCCCCCCc1cscc1-c1cscc1Br .
Reply text: inactive

Inquiry: Each molecule tested received a call. Report the one for COc1cc(Nc2nc3ccccc3nc2C(=O)O)cc(OC)c1OC .
Reply text: inactive

Inquiry: Each molecule tested received a call. Report the one for C1CN(C23OC4(N5CCOCC5)C5C6CC(C7C6C4C72)C53)CCO1 (stereo not given) .
Reply text: inactive

Inquiry: Each molecule tested received a call. Report the one for COC(=O)N1C[C@@]2(C=CC3(CC2)OCCO3)c2ccccc21 .
Reply text: inactive

Inquiry: Each molecule tested received a call. Report the one for N#Cc1nc(C(O)c2ccccc2)oc1N (stereo not given) .
Reply text: inactive

Inquiry: Each molecule tested received a call. Report the one for CCN1C(=O)C(C)S/C1=N\NC(=O)CSc1nc2ccccc2c(=O)n1CC (stereo not given) .
Reply text: inactive

Inquiry: Each molecule tested received a call. Report the one for C[C@H](NS(=O)(=O)c1ccc(NC(=O)c2ccccc2)cc1)C(=O)O .
Reply text: inactive

Inquiry: Each molecule tested received a call. Report the one for CC1(C)CCCCCCC2OC2CCCCCC(C)(C)C1=O (stereo not given) .
Reply text: inactive

Inquiry: Each molecule tested received a call. Report the one for CCOC(=O)N1CCNCCN(C(=O)OCC)CCNCC1 .
Reply text: inactive

Inquiry: Each molecule tested received a call. Report the one for O=C(O)c1c([N+](=O)[O-])cc(C(F)(F)F)cc1[N+](=O)[O-] .
Reply text: inactive

Inquiry: Each molecule tested received a call. Report the one for COc1cc(C2c3c(ccc4ccccc34)C(=O)C3CCC(=O)N32)cc(OC)c1O (stereo not given) .
Reply text: inactive

Inquiry: Each molecule tested received a call. Report the one for OCc1cc2c(cn1)[nH]c1ccc(NCc3ccccc3)cc12 .
Reply text: inactive

Inquiry: Each molecule tested received a call. Report the one for O=c1oc2ccc(-n3c(=O)c4ccccc4c4ccccc4c3=O)cc2c2ccccc12 .
Reply text: inactive

Inquiry: Each molecule tested received a call. Report the one for CC(C)=CC(=O)OC1C2C(C)=CC(=O)C(O)C2(C)C2C3(O)OCC24C(CC(=O)OC14)C(C)C3O (stereo not given) .
Reply text: active

Inquiry: Each molecule tested received a call. Report the one for NCC(Cl)C(O)c1c[nH]c(N)n1 (stereo not given) .
Reply text: active

Inquiry: Each molecule tested received a call. Report the one for CN1C(=O)N(c2nc3ccccc3[nH]2)C(C)(C)C1=O .
Reply text: inactive

Inquiry: Each molecule tested received a call. Report the one for O=C(O)CN1CCNCCN(CP(=O)(O)O)CC1 .
Reply text: inactive

Inquiry: Each molecule tested received a call. Report the one for CC1=CC(=O)CC2(C)CC[C@@H]3C[C@]12OC3(C)C (stereo not given in full) .
Reply text: inactive

Inquiry: Each molecule tested received a call. Report the one for COc1cc2c(cc1OC)C1(COc3cc(O)c(O)c(O)c3C1=O)C2 (stereo not given) .
Reply text: inactive

Inquiry: Each molecule tested received a call. Report the one for OC1(c2ccc(Cl)cc2)c2ccccc2-c2nc3ccccc3n21 (stereo not given) .
Reply text: inactive

Inquiry: Each molecule tested received a call. Report the one for O=C1c2c(c3c4ccccc4n(CC4CO4)c3c3[nH]c4ccccc4c23)C(=O)N1Cc1ccccc1 (stereo not given) .
Reply text: inactive

Inquiry: Each molecule tested received a call. Report the one for Cc1nn(C(=O)c2ccc(Cl)cc2)c2c1C(c1ccccc1O)SC(=N)N2 (stereo not given) .
Reply text: inactive

Inquiry: Each molecule tested received a call. Report the one for CCOC(=O)C(=C(SC)SC)c1nn2c(=O)cc(C)nc2s1 .
Reply text: inactive

Inquiry: Each molecule tested received a call. Report the one for COc1cc(S(=O)(=O)Nc2nc(-c3ccc(N4C(=O)/C(=C/c5ccccc5[N+](=O)[O-])N=C4c4ccccc4)cc3)cs2)ccc1Cl .
Reply text: inactive

Inquiry: Each molecule tested received a call. Report the one for COc1ccc(-c2cs/c(=N\c3ccccc3)n2CCCN(C)C)cc1 .
Reply text: inactive

Inquiry: Each molecule tested received a call. Report the one for C[C@]12[C@@H]3CC[C@H]1[C@@H](O)C(=O)N2CC3 .
Reply text: inactive

Inquiry: Each molecule tested received a call. Report the one for N=C(N)NC(=N)Nc1c(F)c(F)c(F)c(F)c1F .
Reply text: inactive

Inquiry: Each molecule tested received a call. Report the one for CC(=O)N(C)SCC(NC(=O)C(Cc1ccccc1)NC(=O)OCC1c2ccccc2-c2ccccc21)C(=O)NC(Cc1ccccc1)C(=O)NC(Cc1cn(C=O)c2ccccc12)C(=O)NC(CCCCNC(=O)OCC1c2ccccc2-c2ccccc21)C(=O)NC(C(=O)NC(CSN(C)C(C)=O)C(=O)NC(C(N)=O)C(C)O)C(C)O (stereo not given) (Fmoc-F[X31]FW(For)K(Fmoc)T[X31]T-NH2; configuration not given here) .
Reply text: inactive

// provenance: ChEMBL document CHEMBL1201862
